assay.notes: recombinant UMI read abundance after kanamycin selection (control-corrected) (log10(CPM+1)); higher = more efficient recombination; extreme values may be limits of the assay; sequences stand for … in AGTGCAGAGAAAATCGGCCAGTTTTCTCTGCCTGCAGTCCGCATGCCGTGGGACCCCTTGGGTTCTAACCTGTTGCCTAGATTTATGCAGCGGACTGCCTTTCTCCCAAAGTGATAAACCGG…AGGTTGGTTTCACT; site = the 11-nt donor;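 further: IS621 bridge recombinase in Escherichia coli cells against a fixed T5 target plasmid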
The reader will find reported recombinant UMI read abundance (log10) values listed item by item below.

The cases that follow already have their recombinant UMI read abundance (log10) on record.
chain	measured.value
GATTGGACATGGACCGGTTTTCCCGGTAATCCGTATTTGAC (site GGTTGGACTGT)	0.928
CGATCGACATGGACCGGTTTTCCCGGTAATCCGTATTTGTA (site CGATCGACTCA)	0.0107
TACGACGCATGGACCGGTTTTCCCGGTAATCCGTATTTGGG (site TACGACGCTCC)	0.012
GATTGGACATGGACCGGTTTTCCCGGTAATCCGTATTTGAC (site GTTTGGACTGT)	0

Switching to the query record.
Need recombinant UMI read abundance (log10), item TATTTGGCATGGACCGGTTTTCCCGGTAATCCGTATTTGTT (site TATTTGGCTAA)
0.17
